biological target: human BLVRB (half-holo BLVRB) (Homo sapiens, UniProt P30043); construct: His6 (N, cleaved yes); made in house; host or cells: E. coli BL21(DE3), pET-21b; assay: Isothermal titration calorimetry (ITC) of drug binding to half-holo BLVRB; conditions: 25 °C
Kd overview
State the answer as a number, implicitly in nM.

- given smiles: "O=C(O)c1cc(/N=N/c2ccc(O)c(C(=O)O)c2)ccc1O"
  Kd (nM): 150

Could you now look at the following molecule, please?
Request: Kd, test system human BLVRB (half-holo BLVRB) (Homo sapiens, UniProt P30043), entry "O=C(O)c1cc(/C=C/c2ccc(O)c(C(=O)O)c2)ccc1O" 140

---

Kd overview
target: apo-BLVRB (Homo sapiens)
State the answer as a number, implicitly in µM.

I would be grateful if you could share the reported Kd for "O=C(O)c1cc(/N=N/c2ccc(O)c(C(=O)O)c2)ccc1O" . 9.31

Subsequent entry: "O=C(O)c1cc(/C=C/c2ccc(O)c(C(=O)O)c2)ccc1O" 11.4

---

Biological target: BLVRB (Homo sapiens)
Sequence (P30043 1-206): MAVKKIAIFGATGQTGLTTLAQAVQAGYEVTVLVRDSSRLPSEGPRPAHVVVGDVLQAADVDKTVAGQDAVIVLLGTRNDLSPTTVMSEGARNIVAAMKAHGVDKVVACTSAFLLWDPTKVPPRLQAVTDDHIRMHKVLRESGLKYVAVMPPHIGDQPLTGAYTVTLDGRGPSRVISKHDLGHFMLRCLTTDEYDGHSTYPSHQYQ
result type: pKi
Convention used: pKi is expressed as -log10 of the molar concentration.

- molecule: "O=C(O)c1cc(/N=N/c2ccc(O)c(C(=O)O)c2)ccc1O [Olsalazine, olsalazine]"
  result type: "pKi"
  observed result: 6.26

Could you now look at the following molecule, please?
I would be grateful if you could share the reported pKi for O=C(O)c1cc(/C=C/c2ccc(O)c(C(=O)O)c2)ccc1O [Olsalkene] . 6.25

meta.source: paper PMC11435328
